Value type: Ki (nM)
Answer format: numeric, nM implied, no suffix.

Ki on β3 (Homo sapiens) for CC(=O)N1CCC(c2ccc(-c3cc(C(=O)O)cc4cc(-c5ccc(C(F)(F)F)cc5)ccc34)cc2)CC1 is 860

---

Target or system: hP2Y14R (Homo sapiens, UniProt Q15391)
Sequence (Q15391 1-338): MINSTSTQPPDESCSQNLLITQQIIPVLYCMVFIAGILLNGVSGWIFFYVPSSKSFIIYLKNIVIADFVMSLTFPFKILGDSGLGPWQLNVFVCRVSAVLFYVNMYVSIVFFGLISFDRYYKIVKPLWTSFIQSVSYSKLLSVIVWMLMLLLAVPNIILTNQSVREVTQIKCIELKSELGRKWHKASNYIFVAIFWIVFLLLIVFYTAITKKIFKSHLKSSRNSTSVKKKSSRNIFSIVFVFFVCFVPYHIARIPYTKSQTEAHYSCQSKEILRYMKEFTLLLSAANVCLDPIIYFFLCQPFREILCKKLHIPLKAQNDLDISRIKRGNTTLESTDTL
Test name: Competitive fluorescent binding assay in whole CHO-hP2Y14R cells, tracer 20, flow cytometry
Experimental parameters: read-out: Human P2Y14R binding affinity (IC50)
For each of the molecules below, state its pIC50.
Conceptually, pIC50 converts a concentration in mol/L into minus its log10.

So, O=C(O)c1cc(O)c2ccc(-c3ccc(C(F)(F)F)cc3)cc2c1 ? Its pIC50 was 5.49

Recorded result, CCC(=O)N1CCC(c2ccc(-c3cc(C(=O)O)cc4cc(-c5ccc(C(F)(F)F)cc5)ccc34)cc2)CC1 , pIC50: 7.38

// pIC50 lookup, molecule = NCCCNC(=O)c1ccc(-c2cc(C(=O)O)cc(-n3cc(-c4ccc(C(F)(F)F)cc4)nn3)c2)s1 , result: 6.77

Looking up O=C(O)c1cc(-c2ccc(C3CCNCC3)cc2)cc(-c2cn(-c3ccc(C(F)(F)F)cc3)nn2)c1 , I found its pIC50 recorded as 6.18

Quick note, pIC50 for C#CCCCCN1CCC(c2ccc(-c3cc(C(=O)O)cc4cc(-c5ccc(C(F)(F)F)cc5)ccc34)cc2)CC1 landed at 7.12
